- experimental setup: in ethylene glycol, 293.15 K
observable: solubility (mole fraction)
Answers are plain numbers.

(Q) Consider the molecule shown here: `C=CC(=O)NC(C)(C)CS(=O)(=O)O` What is its recorded solubility (mole fraction)?
(A) 0.00105

====

- experimental setup: in n-heptanol, 328.15 K
observable: solubility (mole fraction)
Numbers only.

(Q) Consider the molecule shown here: `C=CC(=O)NC(C)(C)CS(=O)(=O)O` What is its recorded solubility (mole fraction)?
(A) 0.0145

====

- experimental setup: in isopropanol, 283.15 K
observable: solubility (mole fraction)

(Q) Consider the compound shown here: `C=CC(=O)NC(C)(C)CS(=O)(=O)O` What is its recorded solubility (mole fraction)?
(A) 0.000208
